# SYSTEM_NAME: AeKir1 (Aedes aegypti, UniProt L0EQS9)
# Sequence (L0EQS9 entry or part of it): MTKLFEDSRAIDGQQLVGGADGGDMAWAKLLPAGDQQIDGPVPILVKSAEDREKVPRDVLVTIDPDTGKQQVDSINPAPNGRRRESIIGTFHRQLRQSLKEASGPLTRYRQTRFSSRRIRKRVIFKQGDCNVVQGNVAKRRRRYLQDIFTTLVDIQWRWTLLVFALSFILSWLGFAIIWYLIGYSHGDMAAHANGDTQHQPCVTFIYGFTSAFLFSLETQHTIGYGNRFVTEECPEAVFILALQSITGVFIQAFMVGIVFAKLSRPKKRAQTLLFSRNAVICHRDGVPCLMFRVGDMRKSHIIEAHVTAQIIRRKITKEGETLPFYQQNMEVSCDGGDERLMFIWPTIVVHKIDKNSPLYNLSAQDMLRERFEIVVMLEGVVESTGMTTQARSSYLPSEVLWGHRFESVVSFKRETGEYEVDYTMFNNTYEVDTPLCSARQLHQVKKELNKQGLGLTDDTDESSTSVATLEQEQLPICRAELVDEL
# ASSAY_COMMENT: Whole-cell patch clamp electrophysiology of T-REx-HEK293-AeKir1 cells
# Format: cell-based
# MEASUREMENT_SETUP: T-REx-HEK293 cells, 95% CI: 75.4–124.2 nM, n = 4–6
pIC50: −log10 of the molar value.
MEASURED_PARAMETER: pIC50

{"MOLECULE": "CCC(=O)N1c2ccc(S(=O)(=O)Nc3cccc(OC)c3)cc2CC1C (stereo not shown)", "RECORDED_RESULT": 7.01}

###

Let's look at some molecules and their measured IC50.
# SYSTEM_NAME: AeKir1 (Aedes aegypti, UniProt L0EQS9)
# ASSAY_COMMENT: Tl+ flux assay in T-REx-HEK293-AeKir1 cells
# Format: cell-based
# MEASUREMENT_SETUP: Table 3, central core SAR; 11-point CRCs on AeKir1 in Tl+ flux, triplicate on two separate days; read-out: IC50±SEM

{"MOLECULAR_STRING": "COc1cccc(NS(=O)(=O)c2ccc3c(c2)cc(C)n3C)c1", "VALUE_MODIFIER": "=", "IC50 (nM)": 970}
{"MOLECULAR_STRING": "COc1cccc(NS(=O)(=O)c2ccc3c(c2)OCC(=O)N3)c1", "VALUE_MODIFIER": ">", "IC50 (nM)": 30000}
{"MOLECULAR_STRING": "COc1cccc(NS(=O)(=O)c2ccc3c(c2)CCN3C(C)=O)c1", "VALUE_MODIFIER": "=", "IC50 (nM)": 1150}
{"MOLECULAR_STRING": "COc1cccc(NS(=O)(=O)c2ccc3c(c2)CCC(=O)N3)c1", "VALUE_MODIFIER": ">", "IC50 (nM)": 30000}
{"MOLECULAR_STRING": "COc1cccc(NS(=O)(=O)c2ccc3c(c2)CC(=O)N3C)c1", "VALUE_MODIFIER": ">", "IC50 (nM)": 30000}
{"MOLECULAR_STRING": "COc1cccc(NS(=O)(=O)c2ccc3c(ccn3C)c2)c1", "VALUE_MODIFIER": "=", "IC50 (nM)": 550}

###

# SYSTEM_NAME: Kir7.1(M125R) (Homo sapiens, UniProt O60928, M125R)
# Sequence (O60928 1-360 M125R): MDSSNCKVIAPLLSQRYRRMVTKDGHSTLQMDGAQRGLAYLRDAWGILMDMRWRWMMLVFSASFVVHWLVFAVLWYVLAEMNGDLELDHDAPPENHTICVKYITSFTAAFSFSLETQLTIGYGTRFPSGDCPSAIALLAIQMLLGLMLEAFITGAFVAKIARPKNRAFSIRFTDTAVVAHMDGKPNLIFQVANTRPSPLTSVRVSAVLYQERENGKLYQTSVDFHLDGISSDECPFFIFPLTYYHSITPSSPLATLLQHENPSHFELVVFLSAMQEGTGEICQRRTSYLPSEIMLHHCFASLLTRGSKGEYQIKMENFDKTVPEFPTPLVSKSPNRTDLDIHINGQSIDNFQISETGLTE
# ASSAY_COMMENT: Tl+ flux selectivity assay, Kir7.1(M125R)
# MEASUREMENT_SETUP: n = 2 independent experiments in triplicate, read-out: Inhibition of Tl+ flux (IC50)

{"MOLECULE": "CCC(=O)N1c2ccc(S(=O)(=O)Nc3cccc(OC)c3)cc2CC1C (stereo not shown)", "IC50": "> 30 µM"}

###

# SYSTEM_NAME: AeKir1 (Aedes aegypti)
# ASSAY_COMMENT: Tl+ flux assay in T-REx-HEK293-AeKir1 cells
# Format: cell-based
# MEASUREMENT_SETUP: Table 2, southern amide SAR; 11-point CRCs on AeKir1 in Tl+ flux, triplicate on two separate days; read-out: IC50±SEM
pIC50: −log10 of the molar value.
Let's look at some compounds and their measured pIC50.
MEASURED_PARAMETER: pIC50

{"COMPOUND": "COc1cccc(NS(=O)(=O)c2ccc3c(c2)CC(C)N3C(=O)c2ccccc2C)c1 (centres unmarked)", "SYSTEM_NAME": "AeKir1 (Aedes aegypti)", "VALUE_MODIFIER": "=", "RECORDED_RESULT": 5.36}
{"COMPOUND": "COc1cccc(NS(=O)(=O)c2ccc3c(c2)CC(C)N3C(=O)c2ccc(C)cc2)c1 (centres unmarked)", "SYSTEM_NAME": "AeKir1 (Aedes aegypti)", "VALUE_MODIFIER": "<", "RECORDED_RESULT": 4.52}
{"COMPOUND": "COc1cccc(NS(=O)(=O)c2ccc3c(c2)CC(C)N3C(=O)C(F)(F)F)c1 (centres unmarked)", "SYSTEM_NAME": "AeKir1 (Aedes aegypti)", "VALUE_MODIFIER": "=", "RECORDED_RESULT": 6.24}
{"COMPOUND": "COc1cccc(NS(=O)(=O)c2ccc3c(c2)CC(C)N3C(=O)c2ccccn2)c1 (centres unmarked)", "SYSTEM_NAME": "AeKir1 (Aedes aegypti)", "VALUE_MODIFIER": "=", "RECORDED_RESULT": 5.36}
{"COMPOUND": "COc1cccc(NS(=O)(=O)c2ccc3c(c2)CC(C)N3C(=O)c2cccc(C)c2)c1 (centres unmarked)", "SYSTEM_NAME": "AeKir1 (Aedes aegypti)", "VALUE_MODIFIER": "=", "RECORDED_RESULT": 5.41}

###

# SYSTEM_NAME: Kir4.1 (Homo sapiens, UniProt P78508)
# Construct: expressed in transfected cells
# Sequence (P78508 whole entry): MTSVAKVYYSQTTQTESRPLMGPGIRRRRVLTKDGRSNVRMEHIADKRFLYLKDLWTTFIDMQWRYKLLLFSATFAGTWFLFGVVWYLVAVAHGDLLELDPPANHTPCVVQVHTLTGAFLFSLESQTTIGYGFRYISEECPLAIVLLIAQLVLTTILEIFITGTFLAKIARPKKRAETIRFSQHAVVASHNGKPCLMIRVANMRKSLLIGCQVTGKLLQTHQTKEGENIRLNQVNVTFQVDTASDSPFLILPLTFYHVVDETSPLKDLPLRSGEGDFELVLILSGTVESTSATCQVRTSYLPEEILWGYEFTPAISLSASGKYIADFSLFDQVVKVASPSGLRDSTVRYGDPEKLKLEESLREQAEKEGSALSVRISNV
# ASSAY_COMMENT: Tl+ flux selectivity assay, Kir4.1
# Type: cell-based
# MEASUREMENT_SETUP: n = 2 independent experiments in triplicate, read-out: Inhibition of Tl+ flux (IC50)

{"MOLECULE": "CCC(=O)N1c2ccc(S(=O)(=O)Nc3cccc(OC)c3)cc2CC1C (stereo not shown)", "IC50": "> 30 µM"}

###

# SYSTEM_NAME: AeKir1 (Aedes aegypti, UniProt L0EQS9)
# ASSAY_COMMENT: Two-electrode electrophysiology of Xenopus oocytes expressing AeKir1
# Type: cell-based
# MEASUREMENT_SETUP: inward current at −140 mV, 95% CI: 2.3–6.3 µM, n = 4–5 oocytes per concentration, read-out: IC50 of AeKir1 current inhibition
# Description: AeKir1 and AeKir2B channels were expressed heterologously in Xenopus laevis oocytes as described previously. […] To evaluate the inhibition of AeKir1 and AeKir2B activity by VU625, we focused on the maximal inward currents elicited by the voltage-stepping protocol, which occur at a voltage of −140 mV. […] The percent inhibition of the inward current was calculated by subtracting IB from IA and then dividing by IA. […]

{"COMPOUND": "CCC(=O)N1c2ccc(S(=O)(=O)Nc3cccc(OC)c3)cc2CC1C (stereo not shown)", "IC50, µM": 3.8}

###

# SYSTEM_NAME: Kir6.2/SUR1 (Homo sapiens)
# Sequence (Q14654 whole entry): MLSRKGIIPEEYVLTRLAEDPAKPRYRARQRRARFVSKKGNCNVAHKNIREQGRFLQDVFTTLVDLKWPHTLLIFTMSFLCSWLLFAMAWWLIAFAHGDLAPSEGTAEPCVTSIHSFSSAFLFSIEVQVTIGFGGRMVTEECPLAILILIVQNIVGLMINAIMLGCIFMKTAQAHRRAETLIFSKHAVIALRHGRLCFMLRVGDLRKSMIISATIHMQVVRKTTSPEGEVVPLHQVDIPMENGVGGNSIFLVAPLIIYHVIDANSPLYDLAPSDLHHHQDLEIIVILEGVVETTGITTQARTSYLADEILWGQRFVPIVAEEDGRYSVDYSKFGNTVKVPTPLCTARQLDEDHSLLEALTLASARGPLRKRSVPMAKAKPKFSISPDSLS
# Sequence (Q09428 whole entry partner): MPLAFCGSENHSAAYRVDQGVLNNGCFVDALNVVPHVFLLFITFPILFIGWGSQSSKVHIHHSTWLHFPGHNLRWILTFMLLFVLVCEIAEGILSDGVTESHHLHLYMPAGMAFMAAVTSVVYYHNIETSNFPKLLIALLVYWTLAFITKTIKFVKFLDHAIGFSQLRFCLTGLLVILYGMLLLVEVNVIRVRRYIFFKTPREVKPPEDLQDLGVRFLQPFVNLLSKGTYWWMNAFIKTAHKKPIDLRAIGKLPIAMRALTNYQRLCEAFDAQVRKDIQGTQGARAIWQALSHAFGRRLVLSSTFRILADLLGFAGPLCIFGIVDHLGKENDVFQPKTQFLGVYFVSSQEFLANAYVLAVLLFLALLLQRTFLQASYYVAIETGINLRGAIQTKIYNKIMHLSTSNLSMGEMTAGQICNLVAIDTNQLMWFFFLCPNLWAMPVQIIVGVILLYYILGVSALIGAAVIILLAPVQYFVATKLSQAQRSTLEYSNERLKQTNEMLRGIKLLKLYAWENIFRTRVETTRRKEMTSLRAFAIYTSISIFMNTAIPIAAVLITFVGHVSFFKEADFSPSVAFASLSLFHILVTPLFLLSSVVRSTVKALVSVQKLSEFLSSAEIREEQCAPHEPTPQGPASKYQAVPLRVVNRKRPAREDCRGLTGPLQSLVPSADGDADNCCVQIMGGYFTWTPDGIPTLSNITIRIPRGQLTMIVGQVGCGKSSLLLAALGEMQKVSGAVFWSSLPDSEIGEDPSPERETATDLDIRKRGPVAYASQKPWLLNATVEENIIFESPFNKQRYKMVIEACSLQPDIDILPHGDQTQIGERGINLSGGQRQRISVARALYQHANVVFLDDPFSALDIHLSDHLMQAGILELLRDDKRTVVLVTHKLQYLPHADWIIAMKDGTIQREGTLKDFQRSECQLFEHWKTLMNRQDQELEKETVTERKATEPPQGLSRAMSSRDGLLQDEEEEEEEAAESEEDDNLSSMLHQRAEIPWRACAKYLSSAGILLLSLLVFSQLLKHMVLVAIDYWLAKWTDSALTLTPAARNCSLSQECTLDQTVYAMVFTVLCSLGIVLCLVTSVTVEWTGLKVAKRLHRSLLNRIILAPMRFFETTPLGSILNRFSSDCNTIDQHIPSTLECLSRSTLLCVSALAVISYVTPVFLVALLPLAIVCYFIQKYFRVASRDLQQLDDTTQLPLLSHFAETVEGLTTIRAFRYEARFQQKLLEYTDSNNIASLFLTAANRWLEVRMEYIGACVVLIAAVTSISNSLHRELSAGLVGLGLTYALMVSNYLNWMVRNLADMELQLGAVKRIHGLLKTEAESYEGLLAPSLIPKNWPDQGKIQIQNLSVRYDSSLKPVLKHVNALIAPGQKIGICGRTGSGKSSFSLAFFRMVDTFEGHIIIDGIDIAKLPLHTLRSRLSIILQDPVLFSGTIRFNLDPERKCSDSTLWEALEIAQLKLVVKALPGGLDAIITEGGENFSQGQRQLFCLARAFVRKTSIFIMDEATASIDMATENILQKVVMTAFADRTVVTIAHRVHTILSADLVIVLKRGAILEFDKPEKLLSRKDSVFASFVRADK
# ASSAY_COMMENT: Tl+ flux selectivity assay, Kir6.2/SUR1
# MEASUREMENT_SETUP: Kir6.2/SUR1, diazoxide 250 µM; n = 2 independent experiments in triplicate; read-out: Inhibition of Tl+ flux (IC50)
pIC50: −log10 of the molar value.
MEASURED_PARAMETER: pIC50

{"COMPOUND": "CCC(=O)N1c2ccc(S(=O)(=O)Nc3cccc(OC)c3)cc2CC1C (stereo not shown)", "SYSTEM_NAME": "Kir6.2/SUR1 (Homo sapiens)", "RECORDED_RESULT": "< 4.52"}

###

# SYSTEM_NAME: AeKir1 (Aedes aegypti)
# ASSAY_COMMENT: Tl+ flux assay in T-REx-HEK293-AeKir1 cells
# Format: cell-based
# MEASUREMENT_SETUP: Table 2, southern amide SAR; 11-point CRCs on AeKir1 in Tl+ flux, triplicate on two separate days; read-out: IC50±SEM
pIC50: −log10 of the molar value.
Please enter true (1) where pIC50 is greater than or equal to 6, and false (0) where it is lower.

{"MOLECULE": "COc1cccc(NS(=O)(=O)c2ccc3c(c2)CC(C)N3S(C)(=O)=O)c1 (stereo not shown)", "CATEGORY": "false (0)"}
{"MOLECULE": "COc1cccc(NS(=O)(=O)c2ccc3c(c2)CC(C)N3C(=O)c2cccc(F)c2)c1 (stereo not shown)", "CATEGORY": "false (0)"}
{"MOLECULE": "CCC(=O)N1c2ccc(S(=O)(=O)Nc3cccc(OC)c3)cc2CC1C (stereo not shown)", "CATEGORY": "true (1)"}
{"MOLECULE": "COc1cccc(NS(=O)(=O)c2ccc3c(c2)CC(C)N3S(=O)(=O)c2ccccc2)c1 (stereo not shown)", "CATEGORY": "false (0)"}
{"MOLECULE": "COc1cccc(NS(=O)(=O)c2ccc3c(c2)CC(C)N3C(=O)N(C)C)c1 (stereo not shown)", "CATEGORY": "false (0)"}

FYI, the data here is from paper PMC4222822.
